Molecular target: HIV protease (Human immunodeficiency virus type 1 group M subtype B, UniProt P04585)
Construct: HIV protease consists of 99 amino acids and is evidently split off by itself from the pol polyprotein
Test: Inhibition of HIV protease (cleavage of H-Ser-Phe-Asn-Phe-Opr-Gln-Ile-OH, HPLC)
Type: biochemical
Details: inhibitor concentration at which the cleavage rate is halved; pH 6, 2 hours; read-out: IC50
Text: The compounds of the formula (I) according to the invention have enzyme-inhibiting properties. In particular, they inhibit the action of retroviral aspartyl proteases, such as that of HIV protease. Their enzyme-inhibitory action, which is in the milli- to subnanomolar range, can be determined as follows. The heptapeptide: H-Ser-Phe-Asn-Phe-Pro-Gln-Ile-OH (P. L. Darke et al., Biophys. Res. Commun. 156 (1988) 297-303), inter alia, has hitherto been used as the substrate of HIV protease. […]
Structures can show the parent of a compound that is named as a salt.
Parameter: IC50 (nM)

>>> measured_number("CC(C)[C@H](NC(=O)[C@@H](N)Cc1ccccc1)C(=O)N[C@@H](Cc1ccccc1)[C@H](O)[C@@H](O)[C@H](Cc1ccccc1)NC(=O)[C@@H](NC(=O)[C@@H](N)Cc1ccccc1)C(C)C [Example 17, dihydrochloride]")
0.85
>>> measured_number("CSCC[C@H](NC(=O)OC(C)(C)C)C(=O)N[C@H](C(=O)N[C@@H](Cc1ccccc1)[C@H](O)[C@@H](O)[C@H](Cc1ccccc1)NC(=O)[C@@H](NC(=O)[C@H](CCSC)NC(=O)OC(C)(C)C)C(C)C)C(C)C")
19
>>> measured_number("CC(C)[C@H](NC(=O)C(Cc1ccccc1)CS(=O)(=O)N1CCC(NC(=O)OC(C)(C)C)CC1)C(=O)N[C@@H](Cc1ccccc1)[C@@H](O)[C@H](O)[C@H](Cc1ccccc1)NC(=O)[C@@H](NC(=O)C(Cc1ccccc1)CS(=O)(=O)N1CCC(NC(=O)OC(C)(C)C)CC1)C(C)C (stereo partly shown)")
1000
>>> measured_number("CC(C)[C@H](NC(=O)CSc1ccncc1)C(=O)N[C@@H](Cc1ccccc1)[C@@H](O)[C@H](O)[C@H](Cc1ccccc1)NC(=O)[C@@H](NC(=O)CSc1ccncc1)C(C)C")
47

###

Target: HIV protease (Human immunodeficiency virus type 1 group M subtype B, UniProt P04585)
Construct: HIV protease consists of 99 amino acids and is evidently split off by itself from the pol polyprotein
Assay: Inhibition of HIV protease (cleavage of H-Ser-Phe-Asn-Phe-Opr-Gln-Ile-OH, HPLC)
Assay type: biochemical
Details: inhibitor concentration at which the cleavage rate is halved; pH 6, 2 hours; read-out: IC50
Text: The compounds of the formula (I) according to the invention have enzyme-inhibiting properties. In particular, they inhibit the action of retroviral aspartyl proteases, such as that of HIV protease. Their enzyme-inhibitory action, which is in the milli- to subnanomolar range, can be determined as follows. The heptapeptide: H-Ser-Phe-Asn-Phe-Pro-Gln-Ile-OH (P. L. Darke et al., Biophys. Res. Commun. 156 (1988) 297-303), inter alia, has hitherto been used as the substrate of HIV protease. […]
Where a name gives a salt, the structure may show the parent alone.
Parameter: IC50 (nM)

>>> measured_number("N[C@@H](Cc1ccccc1)C(=O)N[C@H](C(=O)N[C@@H](Cc1ccccc1)[C@@H](O)[C@H](O)[C@H](Cc1ccccc1)NC(=O)[C@@H](NC(=O)[C@@H](N)Cc1ccccc1)C1CCCCC1)C1CCCCC1 [Example 72, dihydrochloride]")
30
>>> measured_number("CC(C)[C@H](NC(=O)C(Cc1ccccc1)Cn1ccnc1)C(=O)N[C@@H](Cc1ccccc1)[C@H](O)[C@@H](O)[C@H](Cc1ccccc1)NC(=O)[C@@H](NC(=O)C(Cc1ccccc1)Cn1ccnc1)C(C)C (single isomer, unassigned)")
380
>>> measured_number("CC(C)[C@H](NC(=O)[C@@H](N)CC1CCCCC1)C(=O)N[C@@H](Cc1ccccc1)[C@@H](O)[C@H](O)[C@H](Cc1ccccc1)NC(=O)[C@@H](NC(=O)[C@@H](N)CC1CCCCC1)C(C)C [Example 116, dihydrochloride]")
1.7
>>> measured_number("CC(C)[C@H](NC(=O)[C@@H](N)Cc1ccccc1)C(=O)NC[C@@H](O)[C@H](O)CNC(=O)[C@@H](NC(=O)[C@@H](N)Cc1ccccc1)C(C)C [Example 113, dihydrochloride]")
40
>>> measured_number("CC(C)[C@H](NC(=O)[C@H](Cc1ccccc1)NC(=O)OC(C)(C)C)C(=O)N[C@@H](Cc1ccccc1)[C@H](O)[C@@H](O)[C@H](Cc1ccccc1)NC(=O)[C@@H](NC(=O)[C@H](Cc1ccccc1)NC(=O)OC(C)(C)C)C(C)C")
8.8
>>> measured_number("CC(C)C(NC(=O)C(CN)Cc1ccccc1)C(=O)NC(Cc1ccccc1)C(O)C(O)C(Cc1ccccc1)NC(=O)C(NC(=O)C(CN)Cc1ccccc1)C(C)C (single isomer, unassigned) [Example 104, dihydrochloride]")
24
>>> measured_number("CC(C)[C@H](NC(=O)[C@@H](N)Cc1ccccc1)C(=O)N[C@@H](Cc1ccc2c(c1)OCO2)[C@@H](O)[C@H](O)[C@H](Cc1ccc2c(c1)OCO2)NC(=O)[C@@H](NC(=O)[C@@H](N)Cc1ccccc1)C(C)C")
1
>>> measured_number("CC(C)[C@H](NC(=O)[C@@H](CC(=O)OC(C)(C)C)Cc1ccccc1)C(=O)N[C@@H](Cc1ccccc1)[C@@H](O)[C@H](O)[C@H](Cc1ccccc1)NC(=O)[C@@H](NC(=O)[C@@H](CC(=O)OC(C)(C)C)Cc1ccccc1)C(C)C")
38
>>> measured_number("CC[C@H](C)[C@H](NC(=O)[C@H](Cc1cccc2ccccc12)CS(=O)(=O)C(C)(C)C)C(=O)N[C@@H](Cc1ccccc1)[C@@H](O)[C@H](O)[C@H](Cc1ccccc1)NC(=O)[C@@H](NC(=O)[C@H](Cc1cccc2ccccc12)CS(=O)(=O)C(C)(C)C)[C@@H](C)CC")
30
>>> measured_number("CC(C)[C@H](NC(=O)[C@@H](CC(=O)N1CCC(NC(=O)OC(C)(C)C)CC1)Cc1ccccc1)C(=O)N[C@@H](Cc1ccccc1)[C@@H](O)[C@H](O)[C@H](Cc1ccccc1)NC(=O)[C@@H](NC(=O)[C@@H](CC(=O)N1CCC(NC(=O)OC(C)(C)C)CC1)Cc1ccccc1)C(C)C [Example 100, dihydrochloride]")
400
>>> measured_number("Cc1ccc(S(=O)(=O)N[C@@H](Cc2ccc3ccccc3c2)C(=O)N[C@H](C(=O)N[C@@H](Cc2ccccc2)[C@@H](O)[C@H](O)[C@H](Cc2ccccc2)NC(=O)[C@@H](NC(=O)[C@H](Cc2ccc3ccccc3c2)NS(=O)(=O)c2ccc(C)cc2)C(C)C)C(C)C)cc1")
11

###

Consider the following molecules and their measured IC50 readings.
Target: HIV protease (Human immunodeficiency virus type 1 group M subtype B)
Construct: HIV protease consists of 99 amino acids and is evidently split off by itself from the pol polyprotein
Experiment: Inhibition of HIV protease (cleavage of H-Ser-Phe-Asn-Phe-Opr-Gln-Ile-OH, HPLC)
Assay type: biochemical
Conditions: inhibitor concentration at which the cleavage rate is halved; pH 6, 2 hours; read-out: IC50
Text: The compounds of the formula (I) according to the invention have enzyme-inhibiting properties. In particular, they inhibit the action of retroviral aspartyl proteases, such as that of HIV protease. Their enzyme-inhibitory action, which is in the milli- to subnanomolar range, can be determined as follows. The heptapeptide: H-Ser-Phe-Asn-Phe-Pro-Gln-Ile-OH (P. L. Darke et al., Biophys. Res. Commun. 156 (1988) 297-303), inter alia, has hitherto been used as the substrate of HIV protease. […]
Where a name gives a salt, the structure may show the parent alone.
Parameter: IC50 (nM)

>>> measured_number("CC(C)[C@H](NC(=O)[C@H](Cc1ccccc1)NC(=O)[C@@H](N)CO)C(=O)N[C@@H](Cc1ccccc1)[C@H](O)[C@@H](O)[C@H](Cc1ccccc1)NC(=O)[C@@H](NC(=O)[C@H](Cc1ccccc1)NC(=O)[C@@H](N)CO)C(C)C [Example 19, dihydrochloride]")
0.7
>>> measured_number("CC(C)[C@H](NC(=O)[C@@H](O)CCc1ccccc1)C(=O)N[C@@H](Cc1ccccc1)[C@H](O)[C@@H](O)[C@H](Cc1ccccc1)NC(=O)[C@@H](NC(=O)[C@@H](O)CCc1ccccc1)C(C)C")
6.5
>>> measured_number("CC(C)[C@H](NC(=O)[C@@H](Cc1ccccc1)NC(=O)OC(C)(C)C)C(=O)N[C@@H](Cc1ccccc1)[C@H](O)[C@@H](O)[C@H](Cc1ccccc1)NC(=O)[C@@H](NC(=O)[C@@H](Cc1ccccc1)NC(=O)OC(C)(C)C)C(C)C")
6.5
>>> measured_number("CC(C)[C@H](NC(=O)[C@H](CCC(=O)O)NC(=O)OC(C)(C)C)C(=O)N[C@@H](Cc1ccccc1)[C@H](O)[C@@H](O)[C@H](Cc1ccccc1)NC(=O)[C@@H](NC(=O)[C@H](CCC(=O)O)NC(=O)OC(C)(C)C)C(C)C")
10
>>> measured_number("CC(C)[C@H](NC(=O)[C@H](Cc1ccccc1)NC(=O)[C@@H](N)CO)C(=O)N[C@@H](Cc1ccccc1)[C@@H](O)[C@H](O)[C@H](Cc1ccccc1)NC(=O)[C@@H](NC(=O)[C@H](Cc1ccccc1)NC(=O)[C@@H](N)CO)C(C)C [Example 14, dihydrochloride]")
1
>>> measured_number("CC(C)(C)[C@H](NC(=O)[C@H](Cc1ccccc1)CS(=O)(=O)C(C)(C)C)C(=O)N[C@@H](Cc1ccccc1)[C@@H](O)[C@H](O)[C@H](Cc1ccccc1)NC(=O)[C@@H](NC(=O)[C@H](Cc1ccccc1)CS(=O)(=O)C(C)(C)C)C(C)(C)C")
1.3
>>> measured_number("CC(C)[C@H](NC(=O)[C@H](Cc1ccccc1)NC(=O)OC(C)(C)C)C(=O)N[C@@H](Cc1ccccc1)[C@@H](O)[C@H](O)[C@H](Cc1ccccc1)NC(=O)[C@@H](NC(=O)[C@H](Cc1ccccc1)NC(=O)OC(C)(C)C)C(C)C")
10
>>> measured_number("CC(C)[C@H](NC(=O)[C@@H](CNC(=O)OC(C)(C)C)Cc1ccccc1)C(=O)N[C@@H](Cc1ccccc1)[C@@H](O)[C@H](O)[C@H](Cc1ccccc1)NC(=O)[C@@H](NC(=O)[C@@H](CNC(=O)OC(C)(C)C)Cc1ccccc1)C(C)C")
85
>>> measured_number("CC(C)[C@H](NC(=O)[C@H](CC1CCCCC1)NC(=O)OC(C)(C)C)C(=O)N[C@@H](Cc1ccccc1)[C@@H](O)[C@H](O)[C@H](Cc1ccccc1)NC(=O)[C@@H](NC(=O)[C@H](CC1CCCCC1)NC(=O)OC(C)(C)C)C(C)C")
2200
